RECORDED CONDITIONS: 282.06 K; Liquid; Closed cell (Static) method
READOUT: vapor or sublimation pressure (kPa)
Return type: number; implicit unit kPa.

Recorded vapor or sublimation pressure (compound O ): 1.243

----------
RECORDED CONDITIONS: 277.96 K; Liquid; Closed cell (Static) method
READOUT: vapor or sublimation pressure (kPa)
Return type: number; implicit unit kPa.

Consider the following illustrative entries.
CCOC(=O)OCC [diethyl carbonate] = 0.401
O = 0.961

Recorded vapor or sublimation pressure (compound CCOC(=O)OC [ethyl methyl carbonate] ): 0.958

Recorded vapor or sublimation pressure (compound COC(=O)OC [dimethyl carbonate] ): 2.298

----------
RECORDED CONDITIONS: 310.74 K; Liquid; Closed cell (Static) method
± gives the expanded uncertainty stated by the source.
Measured vapor or sublimation pressure, listed per entry.
# number then unit; no other words

Consider the following illustrative entries.
O = 7.056 ± 0.71 kPa
CCOC(=O)OC [ethyl methyl carbonate] = 6.739 ± 0.68 kPa
CCOC(=O)OCC [diethyl carbonate] = 3.012 ± 0.3 kPa

Next molecule, please.
Recorded vapor or sublimation pressure (molecule COC(=O)OC [dimethyl carbonate] ): 14.02 ± 1.4 kPa

----------
Measured vapor or sublimation pressure, listed per entry.
RECORDED CONDITIONS: 282.06 K; Liquid; Closed cell (Static) method
Return type: number; implicit unit kPa.

Consider the following illustrative entries.
CCOC(=O)OC [ethyl methyl carbonate] = 1.285
CCOC(=O)OCC [diethyl carbonate] = 0.515

Next molecule, please.
Recorded vapor or sublimation pressure (molecule COC(=O)OC [dimethyl carbonate] ): 3.121
